Origin of the recorded values: ChEMBL document CHEMBL1147380

# Test system: A549
# procedure.details: Cytotoxicity against human A549 cells
# Format: functional
# assay.conditions: Homo sapiens, A549; read-out: ED50 (the source's name)
Field 'label' (enum: criterion met / criterion not met). Set to criterion met when EC50 is strictly under 0.4 µg/mL; else criterion not met.

Answered examples (3):
[
  {
    "compound": "CCCCCCCCCCCC[C@H](O)[C@@H]1CC[C@@H]([C@@H](O)CCCCCC(=O)CCCCC2CC(CC(C)=O)C(=O)O2)O1 (stereo partly specified) [SQUAMONE]",
    "experimental.system": "A549",
    "category": "criterion not met"
  },
  {
    "compound": "CCCCCCCCCCCC[C@H](O)[C@@H]1CC[C@@H]([C@@H](O)CCCCCCCCCCCCCCC2=CC(C)OC2=O)O1 (stereo partly specified) [RETICULATACIN]",
    "experimental.system": "A549",
    "category": "criterion not met"
  },
  {
    "compound": "CCCCCCCCCC[C@@H](O)[C@@H]1CC[C@@H]([C@@H]2CC[C@@H]([C@H](O)CCCCCCCCCC(O)CC3=CC(C)OC3=O)O2)O1 (stereo in doubt; 7) [BULLATACIN]",
    "experimental.system": "A549",
    "category": "criterion met"
  }
]

Okay, now this compound:
IN: Is it true that EC50 reported for CCCCCCCCCCCC[C@H](O)[C@@H]1CC[C@@H]([C@@H](O)CCCCC(O)CCCCCC2CC(CC(C)=O)C(=O)O2)O1 (stereo partly specified) [ISOANNONACIN] is less than 0.4 µg/mL?
OUT: criterion met

---

I'd be grateful if you could share measured EC50 for these entries.
# System: A549
# procedure.details: Cytotoxicity against human A549 cells
# Assay type: functional
# assay.conditions: Homo sapiens, A549; read-out: ED50 (the source's name)
Give bare numbers, in µg/mL.

Study these solved cases before continuing.
[
  {
    "compound": "CCCCCCCCCCCC[C@H](O)[C@@H]1CC[C@@H]([C@@H](O)CCCCC(=O)CCCCCC2CC(CC(C)=O)C(=O)O2)O1 (some centres undefined)",
    "EC50 (µg/mL)": 0.07
  },
  {
    "compound": "CCCCCCCCCCCC[C@@H](O)[C@H]1CC[C@H]([C@H](O)CCCC[C@H](O)CCCCC[C@@H](O)CC2=CC(C)OC2=O)O1 (some centres undefined)",
    "EC50 (µg/mL)": 0.001
  },
  {
    "compound": "CCCCCCCCCCCC[C@@H](O)[C@H]1CC[C@H]([C@H](O)CCCCC(=O)CCCCC[C@@H](O)CC2=C[C@H](C)OC2=O)O1",
    "EC50 (µg/mL)": 0.1
  }
]

Attention now shifts to the item below.
IN: What value of EC50 has been reported for the following compound? CCCCCCCCCCCC[C@H](O)[C@@H]1CC[C@@H]([C@@H](O)CCCCCC(=O)CCCCC(O)CC2=CC(C)OC2=O)O1 (some centres undefined)
OUT: 0.01
